# testTarget: Recombinant human DDR1 (Homo sapiens, UniProt Q08345)
# Construct: Recombinant human DDR1 (2.5 nM; aa440-876 containing a GST tag)
# Sequence (Q08345 440-876 isoform Q08345-2): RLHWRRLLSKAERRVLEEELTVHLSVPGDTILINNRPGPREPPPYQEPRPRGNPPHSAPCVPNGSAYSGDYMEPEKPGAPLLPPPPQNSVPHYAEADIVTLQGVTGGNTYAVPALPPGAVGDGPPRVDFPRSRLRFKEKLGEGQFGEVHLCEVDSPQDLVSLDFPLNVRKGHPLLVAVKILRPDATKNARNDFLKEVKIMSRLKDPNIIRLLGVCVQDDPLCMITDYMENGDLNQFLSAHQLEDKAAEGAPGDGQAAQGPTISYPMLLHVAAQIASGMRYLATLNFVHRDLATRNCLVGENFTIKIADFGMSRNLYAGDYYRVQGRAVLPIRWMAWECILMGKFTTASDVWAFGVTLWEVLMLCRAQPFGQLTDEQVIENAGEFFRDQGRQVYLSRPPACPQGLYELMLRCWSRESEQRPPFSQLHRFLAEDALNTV
# testMethodNotes: LanthaScreen Eu Kinase Binding Assay, DDR1
# conditionContext: recombinant human DDR1 (2.5 nM; aa440-876, GST tag), Kinase Tracer 178 5 nM, time-resolved fluorescence, at least two independent replicates; read-out: DDR1 pIC50 (converted)
This section presents compounds with their documented IC50 values.

Worked cases, answers included:
Q: What value of measured IC50 is listed for Cn1ncc2cc(Nc3cccc4ccn(CC(=O)NCC(F)(F)F)c(=O)c34)ccc21 ?
A: 10 to 100 nM

Q: Name the recorded IC50 for CC(=O)C1CCCCN1C(=O)Cn1ccc2cccc(Nc3ccc4c(cnn4C)c3)c2c1=O (stereo not shown) .
A: 100 to 1000 nM

Q: I would be grateful if you could share the reported IC50 for CN1CCN(C(=O)Cn2ccc3cccc(Nc4ccc5c(cnn5C)c4)c3c2=O)CC1 .
A: ≥ 1000 nM

More entries:
Q: # lookup: IC50 of Cn1ncc2cc(Nc3cccc4ccn(CC(=O)NC5(C(F)(F)F)CC5)c(=O)c34)ccc21
A: 10 to 100 nM

Q: May I ask what IC50 has been recorded for Cc1noc(C)c1NC(=O)Cn1ccc2cccc(Nc3ccc4c(cnn4C)c3)c2c1=O ?
A: 100 to 1000 nM

Q: // IC50 lookup, key: CN(C)CCc1ccc(NC(=O)Cn2ccc3cccc(Nc4ccc5c(cnn5C)c4)c3c2=O)cc1C(F)(F)F
A: 10 to 100 nM

Q: Requested read-out: IC50. Entry: COC(=O)c1cncc(NC(=O)Cn2ccc3cccc(Nc4ccc5c(cnn5C)c4)c3c2=O)c1
A: 10 to 100 nM

Q: I would be grateful if you could share the reported IC50 for Cn1ncc2cc(Nc3cccc4ccn(CC(=O)Nc5ccc(C(F)(F)F)cc5)c(=O)c34)ccc21 .
A: < 10 nM

Q: Using the record for Cn1ncc2cc(Nc3cccc4ccn(CC(=O)N5CCCC5)c(=O)c34)ccc21 , report its IC50.
A: 100 to 1000 nM

Q: What does the record list as IC50 for COC(=O)C1CCN(C(=O)Cn2ccc3cccc(Nc4ccc5c(cnn5C)c4)c3c2=O)C1 (stereo not shown) ?
A: 100 to 1000 nM

###

# testTarget: Recombinant human DDR2 (Homo sapiens)
# Construct: DDR2 (1.75 nM; aa427-855 containing a GST tag)
# testMethodNotes: LanthaScreen Eu Kinase Binding Assay, DDR2
# conditionContext: recombinant human DDR2 (1.75 nM; aa427-855, GST tag), Kinase Tracer 178 10 nM, time-resolved fluorescence, at least two independent replicates; read-out: DDR2 pIC50 (converted)
Quick reference: IC50 of the listed items.

Here's what some known entries look like.
Q: Entry CCNC(=O)Cn1ccc2cccc(Nc3ccc4c(cnn4C)c3)c2c1=O [Example 14] : reported IC50 = ?
A: ≥ 1000 nM

Q: If you can, please state the reported IC50 value of Cn1ncc2cc(Nc3cccc4ccn(CC(=O)N5CCCC(C(F)(F)F)C5)c(=O)c34)ccc21 (centres unmarked) [Example 121] .
A: 100 to 1000 nM

Q: Fill in: IC50 of CN(C)Cc1cc(NC(=O)Cn2ccc3cccc(Nc4ccc5c(cnn5C)c4)c3c2=O)cc(C(F)(F)F)c1 [Example 154] is ___
A: 10 to 100 nM

Q: Entry under review: Cn1ncc2cc(Nc3cccc4ccn(CC(=O)NCC5CC5)c(=O)c34)ccc21 [Example 16] . Reported IC50?
A: 100 to 1000 nM

Q: Name the reported IC50 value associated with the compound Cn1ncc2cc(Nc3cccc4ccn(CC(=O)Nc5cncc(C(F)(F)F)c5)c(=O)c34)ccc21 [Example 31]
A: < 10 nM

Q: # IC50 lookup, item CC[C@H](NC(=O)Cn1ccc2cccc(Nc3ccc4c(cnn4C)c3)c2c1=O)C(F)(F)F [Example 45]
A: 10 to 100 nM

***
Q: Bench note: what IC50 did CN(c1ccc2c(cnn2C)c1)c1cccc2ccn(CC(=O)Nc3cccc(C(F)(F)F)c3)c(=O)c12 [Example 144] show?
A: 100 to 1000 nM

Q: IC50 for Cn1ncc2cc(Nc3cccc4ccn(CC(=O)Nc5cccnc5)c(=O)c34)ccc21 [Example 24] ?
A: ≥ 1000 nM

###

Measured IC50 values are reported for all entries that follow.
# testTarget: Recombinant human DDR2 (Homo sapiens)
# Construct: DDR2 (1.75 nM; aa427-855 containing a GST tag)
# testMethodNotes: LanthaScreen Eu Kinase Binding Assay, DDR2
# conditionContext: recombinant human DDR2 (1.75 nM; aa427-855, GST tag), Kinase Tracer 178 10 nM, time-resolved fluorescence, at least two independent replicates; read-out: DDR2 pIC50 (converted)

Some solved entries appear below for comparison.
Q: Name the recorded IC50 for Cn1ncc2cc(Nc3cccc4ccn(CC(=O)N5CCC[C@H]5C(F)F)c(=O)c34)ccc21 .
A: 10 to 100 nM

Q: What IC50 value was documented for this compound, CN(C)Cc1ccc(NC(=O)Cn2ccc3cccc(Nc4ccc5c(cnn5C)c4)c3c2=O)cc1C(F)(F)F ?
A: 10 to 100 nM

Next:
Q: I am curious: what IC50 value has been reported for COc1cncc(NC(=O)Cn2ccc3cccc(Nc4ccc5c(cnn5C)c4)c3c2=O)c1 ?
A: 10 to 100 nM

###

A collection of compounds and their measured IC50
# testTarget: Recombinant human DDR1 (Homo sapiens, UniProt Q08345)
# Construct: Recombinant human DDR1 (2.5 nM; aa440-876 containing a GST tag)
# testMethodNotes: LanthaScreen Eu Kinase Binding Assay, DDR1
# conditionContext: recombinant human DDR1 (2.5 nM; aa440-876, GST tag), Kinase Tracer 178 5 nM, time-resolved fluorescence, at least two independent replicates; read-out: DDR1 pIC50 (converted)

Q: Request the reported IC50 associated with Cn1ccc(NC(=O)Cn2ccc3cccc(Nc4ccc5c(cnn5C)c4)c3c2=O)n1
A: 100 to 1000 nM

Q: Field request: IC50 | item: Cn1ncc2cc(Nc3cccc4ccn(CC(=O)N5CCOC(C(F)(F)F)C5)c(=O)c34)ccc21 (centres unmarked)
A: 10 to 100 nM

###

IC50 overview
# testTarget: Recombinant human DDR2 (Homo sapiens)
# Construct: DDR2 (1.75 nM; aa427-855 containing a GST tag)
# Sequence (Q16832 427-855): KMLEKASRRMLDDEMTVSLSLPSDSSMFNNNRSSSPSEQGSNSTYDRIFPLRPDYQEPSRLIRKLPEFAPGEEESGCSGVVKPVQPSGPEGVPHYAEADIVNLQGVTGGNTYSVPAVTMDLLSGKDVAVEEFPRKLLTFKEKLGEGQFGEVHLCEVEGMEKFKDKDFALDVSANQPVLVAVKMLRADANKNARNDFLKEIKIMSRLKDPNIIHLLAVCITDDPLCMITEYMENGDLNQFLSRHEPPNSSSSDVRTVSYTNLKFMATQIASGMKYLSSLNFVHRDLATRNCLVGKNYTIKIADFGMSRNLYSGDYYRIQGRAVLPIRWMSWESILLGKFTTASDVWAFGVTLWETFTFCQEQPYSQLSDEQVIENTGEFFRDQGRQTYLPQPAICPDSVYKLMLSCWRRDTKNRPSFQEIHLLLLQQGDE
# testMethodNotes: LanthaScreen Eu Kinase Binding Assay, DDR2
# conditionContext: recombinant human DDR2 (1.75 nM; aa427-855, GST tag), Kinase Tracer 178 10 nM, time-resolved fluorescence, at least two independent replicates; read-out: DDR2 pIC50 (converted)

Q: Entry Cn1ncc2cc(Nc3cccc4ccn(CC(=O)N[C@@H](C5CC5)C(F)(F)F)c(=O)c34)ccc21 : reported IC50 = ?
A: 10 to 100 nM

Q: What value of IC50 has been recorded for this entry: CN1CCN(Cc2ccc(NC(=O)Cn3ccc4cccc(Nc5ccc6c(cnn6C)c5)c4c3=O)cc2C(F)(F)F)CC1
A: 10 to 100 nM

Q: Given the molecule Cc1cc(C)n(C(=O)Cn2ccc3cccc(Nc4ccc5c(cnn5C)c4)c3c2=O)n1 , what is its reported IC50?
A: 10 to 100 nM

Q: Bench note: what IC50 did Cn1ncc2cc(Nc3cccc4ccn(CC(=O)Nc5ccccc5)c(=O)c34)ccc21 show?
A: ≥ 1000 nM

Q: Item under review: Cn1ncc2cc(Nc3cccc4ccn(CC(=O)N5CCC[C@H]5C(C)(C)O)c(=O)c34)ccc21 . Reported IC50?
A: ≥ 1000 nM

Q: Can you share its IC50? I mean this molecule: Cn1ccnc1NC(=O)Cn1ccc2cccc(Nc3ccc4c(cnn4C)c3)c2c1=O
A: ≥ 1000 nM

Q: Value lookup for IC50; key = CN(c1ccc2c(cnn2C)c1)c1cccc2ccn(CC(=O)NCC(F)(F)F)c(=O)c12
A: 100 to 1000 nM

Q: So what does the record say about IC50 for Cn1ncc2cc(Nc3cccc4ccn(CC(=O)NC5(C(F)(F)F)CC5)c(=O)c34)ccc21 ?
A: 100 to 1000 nM

Origin of values: patent US12692247B2
